Where do these numbers come from? They come from PubChem BioAssay AID624256.

Kindly state GFP+ MAC1+ double positive for each of the entries shown.
# experiment: HoxA9-arrested leukemia cell differentiation promoters – flow cytometry, MLPCN library, primary screen (AID 624256);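 also: cells exposed to compound for four days before flow analysis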
# conditionsUsed: ER-HoxA9 myeloid progenitors, lysozyme-GFP differentiation, at 10 µM; measured here: differentiation confirmed by MAC1 staining, stronger effect = higher value
Out of some 360,000 compounds screened, about 3,700 (1%) were called active. Another 2% or so got no clear call; they are omitted. The full list was thinned out, with actives kept by preference.
Report only the number, with the unit % understood.

query: I'd like to know its GFP+ MAC1+ double positive. The compound in question is O=C(CC[C@H]1O[C@@H](n2ccc(=O)[nH]c2=O)[C@H](O)[C@@H]1O)N[C@H](Cc1ccccc1)C(=O)NCCCN1CCCC1=O
result: 0.7

query: One more compound: CCOc1ccc(CCN2C(=S)N([C@@H](CC(C)C)CN3CCC[C@@H]3CN3C(=S)NC[C@@H]3Cc3ccc(O)cc3)C[C@@H]2Cc2ccc(O)cc2)cc1
result: 0.7

query: One more compound: N#CCCN(C(=O)COC(=O)c1ccc2c(c1)OCCO2)c1ccccc1
result: 0.7
